Attribution: patent US9192680B2

- assay_notes: Maximal tolerated dose (MTD)
- measurement_conditions: female, athymic nude, mouse, in vivo, ip; intraperitoneally, once a week for three weeks, nude mice; read-out: maximal tolerate dose (MTD)
assay_endpoint: MTD at 3 weeks (mg/kg)
API: value field is a number in mg/kg; no unit string.

Name the recorded MTD at 3 weeks for CCc1c2c(nc3ccc(OC(=O)N4CCC(CCC(C)(COC(C)(C)C)COC(C)(C)C)CC4)cc13)-c1cc3c(c(=O)n1C2)COC(=O)C3(O)CC (stereo not shown) [ATT-11T] .
150
